Assay: Binding affinity against recombinant Plasmodium falciparum D10 M18AAP
READOUT TYPE: pKi
Interpret pKi as the negative base-10 log of the concentration measured in mol/L.

# MOLECULE, DATA VALUE
records = [
    ("CC(CP(=O)(O)C(N)CC(=O)O)C(=O)O (stereo not drawn)", 3.74),
]

What pKi value was documented for this molecule, NC(CCP(=O)(O)O)P(=O)(O)O (stereo not drawn) ?
5.36

Quick one: pKi for CP(=O)(O)C(N)CC(=O)O (stereo not drawn) ?
3.40

* * *

Experiment: Binding affinity against recombinant Plasmodium falciparum D10 M18AAP
READOUT TYPE: pKi
In plain terms, pKi is the concentration in mol/L turned into minus its base-10 logarithm.

Some solved entries appear below for comparison.
# MOLECULE, pKi
measured = [
    ("NC(CCCC(=O)O)P(=O)(O)O (stereo not given)", 3.98),
    ("NC(CC(=O)O)P(=O)(O)O (stereo not given)", 4.57),
    ("N[C@@H](CCC(=O)O)P(=O)(O)O", 6.47),
]

Proceeding to the next molecule to report its pKi.
Sample CC(CP(=O)(O)C(N)CCC(=O)O)C(=O)O (stereo not given) — what was its pKi?
4.37
